The following compounds are listed with their measured pest or weed control at 500 g/ha values.
test system: Setaria faberi (SETFA); experiment: Post-emergence efficacy, glasshouse, evaluated after 13 days; assay type: in vivo; conditions: Setaria faberi, 312 h; post-emergence application, 500 g/Ha, evaluated after 13 days; read-out: Control of weed species SETFA (100=total damage to plant; 0=no damage to plant)
Expressed in %, but write only the number.

compound: O=C(O)CC[n+]1ccc(C(=O)Nc2ccc(F)cc2F)cn1
target_under_test: Setaria faberi (SETFA)
uom: %
pest or weed control at 500 g/ha: 90

compound: CC1(C)CC(CCNC(=O)c2cc[n+](CCC(=O)O)nc2)=NO1 [Compound A148, 2,2,2-trifluoroacetate]
target_under_test: Setaria faberi (SETFA)
uom: %
pest or weed control at 500 g/ha: 50

compound: O=C(O)CC[n+]1ccc(C(=O)N2CCS(=O)(=O)CC2)cn1
target_under_test: Setaria faberi (SETFA)
uom: %
pest or weed control at 500 g/ha: 90

compound: Cn1cnc(CNC(=O)c2cc[n+](CCC(=O)O)nc2)n1
target_under_test: Setaria faberi (SETFA)
uom: %
pest or weed control at 500 g/ha: 80

compound: O=C(O)CC[n+]1ccc(C(=O)NC2C[S+]([O-])C2)cn1 (stereo not drawn)
target_under_test: Setaria faberi (SETFA)
uom: %
pest or weed control at 500 g/ha: 70

compound: O=C(O)CC[n+]1ccc(C(=O)NCCO)cn1
target_under_test: Setaria faberi (SETFA)
uom: %
pest or weed control at 500 g/ha: 100

compound: COCC(C)NC(=O)c1cc[n+](CCC(=O)O)nc1 (stereo not drawn)
target_under_test: Setaria faberi (SETFA)
uom: %
pest or weed control at 500 g/ha: 100

compound: CCNC(=O)c1cc[n+](CC[C@H](N)C(=O)O)nc1
target_under_test: Setaria faberi (SETFA)
uom: %
pest or weed control at 500 g/ha: 70

q: Param item = "CC(C)CNC(=O)c1cc[n+](CCS(=O)(=O)[O-])nc1" ; retrieve measured pest or weed control at 500 g/ha.
a: 70

q: Request the reported pest or weed control at 500 g/ha associated with "O=C(O)CC[n+]1ccc(C(=O)N2CCOCC2)cn1"
a: 90

q: Fill in: pest or weed control at 500 g/ha of "CS(=O)(=O)CCNC(=O)c1cc[n+](CCC(=O)O)nc1" is ___
a: 100

q: GET /values?readout=pest or weed control at 500 g/ha&item= "O=C(NC1CC1)c1cc[n+](CCCOS(=O)(=O)[O-])nc1"
a: 70
